Just for reference, paper PMC12446468 is where these values come from.

Assay overview: MTT cytotoxicity assay, Caco-2
Type: cell-based, human
Settings: human, Caco-2 cells (human colonic epithelial cells), Caco-2, 50 ug/ml, 48 h, read-out: % Cell viability
Quantity: viability at 48 h, 50 µg/ml (%)
// units = %; emit number, no label

Entry under review: COc1cccc2c1C(=O)c1c(O)c3c(c(O)c1C2=O)C[C@@](O)(C(=O)CO)C[C@@H]3O[C@H]1C[C@H](N)[C@H](O)[C@H](C)O1 [Doxorubicin, reference compound] . Reported viability at 48 h, 50 µg/ml?
28.8

Also check COc1c(O)cc2oc(-c3ccccc3)c(OC)c(=O)c2c1O [5,7-Dihydroxy-3,6-dimethoxyflavone]
33.5
